# D(2) dopamine receptor (Homo sapiens): Ki values follow
# Sequence (P14416 whole entry): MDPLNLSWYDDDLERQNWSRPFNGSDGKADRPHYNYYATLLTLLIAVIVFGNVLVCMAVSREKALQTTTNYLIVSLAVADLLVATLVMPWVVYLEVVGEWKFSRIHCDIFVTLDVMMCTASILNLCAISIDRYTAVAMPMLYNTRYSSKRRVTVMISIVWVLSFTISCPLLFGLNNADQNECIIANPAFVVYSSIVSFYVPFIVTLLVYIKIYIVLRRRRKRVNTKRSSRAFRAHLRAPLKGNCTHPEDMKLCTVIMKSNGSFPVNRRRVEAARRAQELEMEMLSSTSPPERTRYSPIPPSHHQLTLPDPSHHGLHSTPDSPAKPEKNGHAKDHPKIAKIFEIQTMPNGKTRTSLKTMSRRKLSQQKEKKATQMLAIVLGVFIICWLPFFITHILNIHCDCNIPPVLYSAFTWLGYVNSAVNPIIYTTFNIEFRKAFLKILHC
recorded.metric: Ki (nM)

Examples from the recorded data:
CCCN(CCCCN1CCN(c2cccc(Cl)c2Cl)CC1)Cc1ccc2c(c1)Cc1ccccc1-2 ... 269
COc1ccccc1N1CCN(CC(F)CCNC(=O)c2cc3ccccc3s2)CC1 (stereo not given) ... 241
O=C(NCCC(F)CN1CCN(c2cccc(Cl)c2Cl)CC1)c1ccc2ccccc2c1 (stereo not given) ... 195
CCCN(CCCCN1CCN(c2cccc(Cl)c2Cl)CC1)Cc1cc2ccccc2s1 ... 162
O=C(NCCC(F)CN1CCN(c2cccc(Cl)c2Cl)CC1)c1ccc2c(c1)Cc1ccccc1-2 (stereo not given) ... 4260
COc1ccccc1N1CCN(CC(F)CCNC(=O)c2cc3ccccc3[nH]2)CC1 (stereo not given) ... 421
O=C(NCCC(F)CN1CCN(c2cccc(Cl)c2Cl)CC1)c1ccc(-c2ccccn2)cc1 (stereo not given) ... 378
CN(CCC(F)CN1CCN(c2cccc(Cl)c2Cl)CC1)Cc1ccc2c(c1)Cc1ccccc1-2 (stereo not given) ... 2060

I = CCCN(CCCCN1CCN(c2ccccc2OC)CC1)Cc1ccc2ccccc2c1
II = COc1ccccc1N1CCN(CC(F)CCNC(=O)c2ccc3c(c2)Cc2ccccc2-3)CC1 (stereo not given)
III = CCCN(CCCCN1CCN(c2ccccc2OC)CC1)Cc1ccc2c(c1)Cc1ccccc1-2
IV = FC(CCNCc1ccc2c(c1)Cc1ccccc1-2)CN1CCN(c2cccc(Cl)c2Cl)CC1 (stereo not given)
V = CN(CCC(O)CN1CCN(c2cccc(Cl)c2Cl)CC1)Cc1ccc2c(c1)Cc1ccccc1-2 (stereo not given)
Query string: Please give the order of these compounds when sorted by Ki, largest value leading. List the labels, following the order given in the request.
Result string: IV, II, V, III, I

1 = OC(CCNCc1ccc2c(c1)Cc1ccccc1-2)CN1CCN(c2cccc(Cl)c2Cl)CC1 (stereo not given)
2 = COc1ccc2[nH]c(C(=O)NCCC(F)CN3CCN(c4cccc(Cl)c4Cl)CC3)cc2c1 (stereo not given)
Query string: Which numeric Ki is bigger, that of 1 or that of 2 ? Indicate your choice by writing its label.
Result string: 1

###

# UniProtKB P28223: Ki values follow
# Sequence (P28223 whole entry): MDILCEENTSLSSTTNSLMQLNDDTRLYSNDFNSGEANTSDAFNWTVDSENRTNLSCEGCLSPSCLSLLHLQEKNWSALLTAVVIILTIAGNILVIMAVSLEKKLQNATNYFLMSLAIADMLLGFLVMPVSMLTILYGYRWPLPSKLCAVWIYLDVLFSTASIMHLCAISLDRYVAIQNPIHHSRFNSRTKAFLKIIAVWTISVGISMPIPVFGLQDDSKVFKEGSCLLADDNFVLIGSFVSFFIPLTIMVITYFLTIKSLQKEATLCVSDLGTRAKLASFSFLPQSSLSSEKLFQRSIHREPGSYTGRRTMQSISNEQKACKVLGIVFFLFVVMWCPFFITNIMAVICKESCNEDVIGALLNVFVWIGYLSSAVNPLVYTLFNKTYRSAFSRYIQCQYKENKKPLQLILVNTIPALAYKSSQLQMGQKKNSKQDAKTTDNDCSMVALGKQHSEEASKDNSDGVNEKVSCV
recorded.metric: Ki (µM)

P = O=C(NCCC(F)CN1CCN(c2cccc(Cl)c2Cl)CC1)c1ccc2ccccc2c1 (stereo not given)
Q = COc1ccc2oc(C(=O)NCCC(F)CN3CCN(c4ccccc4OC)CC3)cc2c1 (stereo not given)
Query string: Would you mind telling me which has the lower recorded Ki between P and Q ? Indicate your choice by writing its label.
Result string: P

###

# test: Binding affinity to human dopamine D2/D3 receptor chimera B expressed in HEK293 cells
# Assay type: cell-based
recorded.metric: Kd (nM)
Quick reminder: number only, in nM, skip the unit.

Query string: Recorded Kd for O=C(NCCC(F)CN1CCN(c2cccc(Cl)c2Cl)CC1)c1cc2ccccc2o1 (stereo unspecified) , please?
Result string: 0.02

###

# experimental.system: D(3) dopamine receptor (Homo sapiens, UniProt P35462)
# Sequence (P35462 whole entry): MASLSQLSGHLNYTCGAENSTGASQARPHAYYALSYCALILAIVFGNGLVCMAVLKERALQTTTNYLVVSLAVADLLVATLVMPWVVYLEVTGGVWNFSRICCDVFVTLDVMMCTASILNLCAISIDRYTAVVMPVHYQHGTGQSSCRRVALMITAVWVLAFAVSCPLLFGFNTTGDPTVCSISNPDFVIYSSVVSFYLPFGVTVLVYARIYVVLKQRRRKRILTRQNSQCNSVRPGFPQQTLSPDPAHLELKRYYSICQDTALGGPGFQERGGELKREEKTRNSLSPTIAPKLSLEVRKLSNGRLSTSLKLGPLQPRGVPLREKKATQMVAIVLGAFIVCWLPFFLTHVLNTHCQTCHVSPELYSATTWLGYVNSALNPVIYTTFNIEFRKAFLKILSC
# test: Antagonist activity at human dopamine D3 receptor expressed in CHOp cells assessed as inhibition of quinpirole-induced mitogenesis
# Type: functional, cell-based
pIC50: −log10 of the molar value.
recorded.metric: pIC50

COc1ccccc1N1CCN(CC(F)CCNC(=O)c2cc3ccccc3o2)CC1 (centres undefined) ... 6.36
CN(CCC(F)CN1CCN(c2cccc(Cl)c2Cl)CC1)Cc1ccc2c(c1)Cc1ccccc1-2 (centres undefined) ... 6.04
O=C(NCCC(F)CN1CCN(c2cccc(Cl)c2Cl)CC1)c1ccc(-c2ccccn2)cc1 (centres undefined) ... 6.59
O=C(NCCC(F)CN1CCN(c2cccc(Cl)c2Cl)CC1)c1ccc2c(c1)Cc1ccccc1-2 (centres undefined) ... 6.10
COc1ccccc1N1CCN(CC(F)CCNC(=O)c2cc3ccccc3[nH]2)CC1 (centres undefined) ... 6.09

P = COc1ccc2oc(C(=O)NCCC(F)CN3CCN(c4ccccc4OC)CC3)cc2c1 (centres undefined)
Q = COc1ccc2oc(C(=O)NCCC(F)CN3CCN(c4cccc(Cl)c4Cl)CC3)cc2c1 (centres undefined)
Query string: Would you mind telling me which has the lower recorded pIC50 between P and Q ? Indicate your choice by writing its label.
Result string: Q
(Q: 5.84, P: 6.11)

A = COc1ccc2[nH]c(C(=O)NCCC(F)CN3CCN(c4ccccc4OC)CC3)cc2c1 (centres undefined)
B = COc1ccc2[nH]c(C(=O)NCCC(F)CN3CCN(c4cccc(Cl)c4Cl)CC3)cc2c1 (centres undefined)
Query string: Which numeric pIC50 is bigger, that of A or that of B ? Indicate your choice by writing its label.
Result string: B

1 = O=C(NCCC(F)CN1CCN(c2cccc(Cl)c2Cl)CC1)c1cc2ccccc2s1 (centres undefined)
2 = COc1ccccc1N1CCN(CC(F)CCNC(=O)c2ccc3c(c2)Cc2ccccc2-3)CC1 (centres undefined)
3 = COc1ccccc1N1CCN(CC(F)CCNC(=O)c2ccc(-c3ccccn3)cc2)CC1 (centres undefined)
4 = COc1ccccc1N1CCN(CC(F)CCNC(=O)c2cc3ccccc3s2)CC1 (centres undefined)
Query string: Please give the order of these molecules when sorted by pIC50, largest value leading. List the labels, following the order given in the request.
Result string: 1, 4, 2, 3
